# test-target: Human immunodeficiency virus type 1 reverse transcriptase (Human immunodeficiency virus 1, UniProt Q72547, Y181I)
# method-summary: Inhibition of HIV1 reverse transcriptase Y181I mutant expressed in Escherichia coli assessed as incorporation of [3H]dTTP into poly(rA)/oligo(dT) by scintillation counting
pIC50: −log10 of the molar value.
pIC50 by entry:

Sample records with pIC50:
[[record]]
line_notation = "Cc1cc(C)cc(S(=O)(=O)c2c(C(=O)NCCc3ccccc3)[nH]c3ccc(Br)cc23)c1"
result = "< 4.40"

[[record]]
line_notation = "Cc1cc(C)cc(S(=O)(=O)c2c(C(=O)NCCn3cccc3)[nH]c3ccc(Cl)c(F)c23)c1"
result = 5.43

[[record]]
line_notation = "Cc1cc(C)cc(S(=O)(=O)c2c(C(=O)NCN3CCOCC3)[nH]c3ccc(Br)cc23)c1"
result = 5.37

[[record]]
line_notation = "Cc1cc(C)cc(S(=O)(=O)c2c(C(=O)NCN3CCCCC3)[nH]c3ccc(Br)cc23)c1"
result = 6.30

[[record]]
line_notation = "Cc1cc(C)cc(S(=O)(=O)c2c(C(=O)NCN3CCCC3)[nH]c3ccc([N+](=O)[O-])cc23)c1"
result = 5.99

[[record]]
line_notation = "Cc1cc(C)cc(S(=O)(=O)c2c(C(=O)NCc3ccccc3)[nH]c3ccc(Cl)c(F)c23)c1"
result = "< 4.40"

[[record]]
line_notation = "Cc1cc(C)cc(S(=O)(=O)c2c(C(=O)NCCN3CCOCC3)[nH]c3ccc(Cl)cc23)c1"
result = "< 4.40"

[[record]]
line_notation = "Cc1cc(C)cc(S(=O)(=O)c2c(C(=O)NCN3CCCCC3)[nH]c3ccc(Cl)cc23)c1"
result = 6.24

[[record]]
line_notation = "Cc1cc(C)cc(S(=O)(=O)c2c(C(=O)NCN3CCOCC3)[nH]c3ccc(Cl)cc23)c1"
result = 5.26

[[record]]
line_notation = "Cc1cc(C)cc(S(=O)(=O)c2c(C(=O)NCCOc3ccccc3)[nH]c3ccc([N+](=O)[O-])cc23)c1"
result = "< 4.40"


Documented pIC50 of `Cc1cc(C)cc(S(=O)(=O)c2c(C(=O)NCc3ccccc3)[nH]c3ccc(Cl)cc23)c1` : < 4.40

Documented pIC50 of `Cc1cc(C)cc(S(=O)(=O)c2c(C(=O)NCN3CCCC3)[nH]c3ccc(Br)cc23)c1` : 6.38

Documented pIC50 of `Cc1cc(C)cc(S(=O)(=O)c2c(C(=O)NCCc3ccccc3)[nH]c3ccc([N+](=O)[O-])cc23)c1` : < 4.40

Documented pIC50 of `Cc1cc(C)cc(S(=O)(=O)c2c(C(=O)NCN3CCOCC3)[nH]c3ccc(Cl)c(F)c23)c1` : 4.99

Documented pIC50 of `Cc1cc(C)cc(S(=O)(=O)c2c(C(=O)NCCn3cccc3)[nH]c3ccc([N+](=O)[O-])cc23)c1` : < 4.40

Documented pIC50 of `Cc1cc(C)cc(S(=O)(=O)c2c(C(=O)NCCOc3ccccc3)[nH]c3ccc(Br)cc23)c1` : < 4.40

Documented pIC50 of `Cc1cc(C)cc(S(=O)(=O)c2c(C(=O)NCCc3ccccc3)[nH]c3ccc(Cl)cc23)c1` : < 4.40

Documented pIC50 of `Cc1cc(C)cc(S(=O)(=O)c2c(C(=O)NCc3ccccc3)[nH]c3ccc([N+](=O)[O-])cc23)c1` : < 4.40

Documented pIC50 of `Cc1cc(C)cc(S(=O)(=O)c2c(C(=O)NCCOc3ccccc3)[nH]c3ccc(Cl)cc23)c1` : < 4.40

----------
# Tested on: Human immunodeficiency virus 2
# method-summary: Antiviral activity against HIV2 isolate ROD infected in human CEM cells assessed as inhibition of virus-induced cytopathicity after 4 days by microscopic analysis
# Format: functional, organism-based
# assay-setup: Human immunodeficiency virus 2, ISOLATE ROD, CCRF-CEM, 96 h
pEC50: −log10 of the molar value.
pEC50 by entry:

[[record]]
line_notation = "Cc1cc(C)cc(S(=O)(=O)c2c(C(=O)NCN3CCCCC3)[nH]c3ccc(Br)cc23)c1"
result = "< 5.70"

[[record]]
line_notation = "Cc1cc(C)cc(S(=O)(=O)c2c(C(=O)NCc3ccccc3)[nH]c3ccc(Cl)c(F)c23)c1"
result = "< 5.70"

[[record]]
line_notation = "Cc1cc(C)cc(S(=O)(=O)c2c(C(=O)NCCc3ccccc3)[nH]c3ccc([N+](=O)[O-])cc23)c1"
result = "< 4.30"

[[record]]
line_notation = "Cc1cc(C)cc(S(=O)(=O)c2c(C(=O)NCN3CCOCC3)[nH]c3ccc(Br)cc23)c1"
result = "< 5.00"

[[record]]
line_notation = "Cc1cc(C)cc(S(=O)(=O)c2c(C(=O)NCCOc3ccccc3)[nH]c3ccc(Cl)c(F)c23)c1"
result = "< 5.70"


Documented pEC50 of `Cc1cc(C)cc(S(=O)(=O)c2c(C(=O)NCCn3cccc3)[nH]c3ccc(Br)cc23)c1` : < 5.00

Documented pEC50 of `Cc1cc(C)cc(S(=O)(=O)c2c(C(=O)NCc3ccccc3)[nH]c3ccc(Cl)cc23)c1` : < 5.00

Documented pEC50 of `Cc1cc(C)cc(S(=O)(=O)c2c(C(=O)NCCn3cccc3)[nH]c3ccc(Cl)c(F)c23)c1` : < 5.00

----------
# method-summary: Cytotoxicity against human CEM cells by coulter counter analysis
# Assay type: cell-based
# assay-setup: CEM (CCRF-CEM) cells
CC50 by entry:
Just the number please, in µM, no unit attached.

Sample records with CC50:
[[record]]
line_notation = "Cc1cc(C)cc(S(=O)(=O)c2c(C(=O)NCCN3CCCC3)[nH]c3ccc([N+](=O)[O-])cc23)c1"
numeric_result = 21

[[record]]
line_notation = "Cc1cc(C)cc(S(=O)(=O)c2c(C(=O)NCN3CCCC3)[nH]c3ccc([N+](=O)[O-])cc23)c1"
numeric_result = 12

[[record]]
line_notation = "Cc1cc(C)cc(S(=O)(=O)c2c(C(=O)NCCc3ccccc3)[nH]c3ccc(Cl)c(F)c23)c1"
numeric_result = 17

[[record]]
line_notation = "Cc1cc(C)cc(S(=O)(=O)c2c(C(=O)NCN3CCCCC3)[nH]c3ccc(Cl)cc23)c1"
numeric_result = 9.9

[[record]]
line_notation = "Cc1cc(C)cc(S(=O)(=O)c2c(C(=O)NCCn3cccc3)[nH]c3ccc([N+](=O)[O-])cc23)c1"
numeric_result = 226


Okay, next one:
Documented CC50 of `Cc1cc(C)cc(S(=O)(=O)c2c(C(=O)NCc3ccccc3)[nH]c3ccc(Br)cc23)c1` : 172

----------
# Tested on: Human immunodeficiency virus 2
# method-summary: Antiviral activity against HIV2 isolate ROD infected in human CEM cells assessed as inhibition of virus-induced cytopathicity after 4 days by microscopic analysis
# Format: functional, organism-based
# assay-setup: Human immunodeficiency virus 2, ISOLATE ROD, CCRF-CEM, 96 h
pEC50: −log10 of the molar value.
recorded-metric: pEC50

[[record]]
compound = "Cc1cc(C)cc(S(=O)(=O)c2c(C(=O)NCN3CCOCC3)[nH]c3ccc([N+](=O)[O-])cc23)c1"
recorded_metric = "pEC50"
result = "≤ 5.00"

[[record]]
compound = "Cc1cc(C)cc(S(=O)(=O)c2c(C(=O)NCN3CCCC3)[nH]c3ccc(Br)cc23)c1"
recorded_metric = "pEC50"
result = "< 5.70"

[[record]]
compound = "Cc1cc(C)cc(S(=O)(=O)c2c(C(=O)NCN3CCOCC3)[nH]c3ccc(Cl)cc23)c1"
recorded_metric = "pEC50"
result = "< 5.70"

[[record]]
compound = "Cc1cc(C)cc(S(=O)(=O)c2c(C(=O)NCCN3CCCC3)[nH]c3ccc([N+](=O)[O-])cc23)c1"
recorded_metric = "pEC50"
result = "< 5.00"


Documented pEC50 of `Cc1cc(C)cc(S(=O)(=O)c2c(C(=O)NCN3CCCC3)[nH]c3ccc(Cl)c(F)c23)c1` : < 5.70

Documented pEC50 of `Cc1cc(C)cc(S(=O)(=O)c2c(C(=O)NCCn3cccc3)[nH]c3ccc(Cl)cc23)c1` : < 5.00

Documented pEC50 of `Cc1cc(C)cc(S(=O)(=O)c2c(C(=O)NCc3ccccc3)[nH]c3ccc(Br)cc23)c1` : < 5.70

Documented pEC50 of `Cc1cc(C)cc(S(=O)(=O)c2c(C(=O)NCN3CCOCC3)[nH]c3ccc(Cl)c(F)c23)c1` : < 5.00

Documented pEC50 of `Cc1cc(C)cc(S(=O)(=O)c2c(C(=O)NCCN3CCOCC3)[nH]c3ccc(Br)cc23)c1` : < 4.30
